Provenance of the data: patent US20230212304A1

Biological target: T1, recombinant human CTLA4-his protein (Acro biosystems, Cat#CT4-H5229) (human, UniProt P16410 37-162)
T1 construct: bought recombinant protein; not shown: his tag
T1 sequence (looked up): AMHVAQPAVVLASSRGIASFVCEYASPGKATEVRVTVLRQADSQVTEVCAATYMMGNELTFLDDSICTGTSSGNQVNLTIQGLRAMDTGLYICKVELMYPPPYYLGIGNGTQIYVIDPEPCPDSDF
Assay: SPR, Biacore T200; antibody captured, CTLA4-his as analyte
value kind: koff (s⁻¹)
Answer in s⁻¹, number only, no unit symbol.

Check out these entries, answers already filled in.
binder	value kind	reported measurement
mouse anti-CTLA4 monoclonal antibody D1D5 (antibody, V domains shown, mouse mAb purified from hybridoma supernatant) VH: EVKLVESGGGLVKPGGSLKLSCAASGFTFSDYGMAWVRQAPGKGPEWVAFISNLAYSVYYADTETGRFTISREDAKNTLYLEMSSLRSEDTAMYYCARSGLPYAMDYWGQGTSVTVSS VL: DIQMTQTTSSLSASLGDRVTISCRASQDISNYLNWYQQKPDGTVKLLIYYISRLHSGVPSRFSGSGSGTDFSLTISNLEQEDIATYFCQQGRMLPWTFGGGTRLEIK	koff	0.000276
mouse anti-CTLA4 monoclonal antibody D1H3 (antibody, V domains shown, mouse mAb purified from hybridoma supernatant) VH: QVQLQQPGAELVNPGASVKLSCKASGYTFTSYWLHWVKQRPGRGLEWIGRIDPNRGTIYYNEKFNNKATVTVDKPSNTAYMQLSRLTLEDSAVYYCARGGSNFYAMDYWGQGTSVTVSS VL: DIQMTQSPASLSASVGETVTITCRTSENIYSYLAWYQQKQGESPQLLVYNAKTLAEGVPSRFSGSGSGTQFSLKINSLQPEDFGSYYCQNHDGIPFTFGSGTKLEIK	koff	0.000931

Please turn your attention to the following entry.
Which koff reading was recorded for the binder mouse anti-CTLA4 monoclonal antibody C1D1 (antibody, V domains shown, mouse mAb purified from hybridoma supernatant) VH: EVKLDETGGGLVQPGRPLKLSCVASGFTFSDNWMNWVRQSPEKGLEWVAQIRNKPYNYETYYSDSVKGRFTISRDDSKSSVYLQMNNLRVEDMGIYYCTGGMDYWGQGTSVTVSS VL: DIQMTQSPASLSASVGETVTITCGASEIIYGALNWYQQKQGKSPQLLIYGATNLADGMSSRFSGSGSGRQYSLKISSLHPDDAATYYCQKILSPPPWTFGGGTKLEIK ?
0.0001
